Reference source: paper PMC6691772

test system: A. fumigatus RCMB 002568; assay: Agar well diffusion, inhibition zone; format: cell-based, Aspergillus fumigatus; conditions: Aspergillus fumigatus, RCMB002568, 1 mg/mL, mean of three values, read-out: Mean diameter of inhibition zone (Mean ± SEM)
Entry flag: yes if zone of inhibition at 1000 µg/mL reaches 20 mm; no if it does not.

CSc1c(C#N)c(N)nc2c(N=NN3C(=O)c4ccccc4C3=O)c(O)nn12	no

Threshold query (zone of inhibition at 1000 µg/mL >= 20 mm) on NC1=NNC(=O)C1=NNN1C(=O)c2ccccc2C1=O yes

Kindly determine if zone of inhibition at 1000 µg/mL recorded for CCOC(=O)c1nnc2c(N=NN3C(=O)c4ccccc4C3=O)c(O)nn2c1C is above or exactly 20 mm. no

Dear colleague, could you confirm whether N#Cc1nnc2c(N=NN3C(=O)c4ccccc4C3=O)c(O)nn2c1N has zone of inhibition at 1000 µg/mL at or above 20 mm? yes

Reported zone of inhibition at 1000 µg/mL at or above 20 mm? CN(C)C=NC1=NNC(=O)C1=NNN1C(=O)c2ccccc2C1=O no

Given the entry N#Cc1cnc2c(N=NN3C(=O)c4ccccc4C3=O)c(O)nn2c1N , answer whether its zone of inhibition at 1000 µg/mL meets or surpasses 20 mm. yes
